Molecular target: NMDA recognition site
Test: NMDA-specific 3H-L-glutamate binding assay in cortical membranes
Details: n=5; mean ± S.E.M.; read-out: K1 for the NMDA site
test.readout: pKi
On this scale, pKi is minus log10 of a concentration expressed in M (mol/L).

Incoming: Return pKi for the following compound: "[N-]=[N+]=NC(=O)c1cc(O)c2ccc(Cl)cc2n1"
Outgoing: 4.00

---

Recorded pKi, one value per entry.
Biological target: strychnine-insensitive glycine site associated with the NMDA receptor/channel complex (Rattus norvegicus)
Construct: buffy coat rat cortical membrane preparation; from tissue; host or cells: rat cerebral cortex, buffy coat membranes
Test: 3H-glycine binding assay in cortical membranes
Procedure: ^3 H-Glycine (^3 H-GLY), ^3 H-TCP and NMDA specific ^3 H-GLU binding assays were performed in a buffy coat rat cortical membrane preparation (Jones et al., 1989). The tissue was homogenized in a glass grinding vessel with a teflon pestle in ice-cold 0.32 M sucrose and centrifuged for 10 min at 1000×g. The resultant supernatant was decanted and recentrifuged at 20,000×g for 20 min. […] Protein concentrations were determined by the method described by Smith (1985). […]
Value format note: pKi is -log10 of concentration (mol/L); just state the number.

1) O=C(O)c1cc(O)c2ccc(Cl)cc2n1 [7-chloro-4-hydroxyquinaldic acid] ... 6.31

# ---- query compound ----
Incoming: State, in one line, measured pKi of "[N-]=[N+]=NC(=O)c1cc(O)c2ccc(Cl)cc2n1"
Outgoing: 5.62
